meta.source: paper PMC8769072

# target_system: TLN1 PTB (talin-1, phosphotyrosine binding-like domain) (human) (UniProt Q9Y490)
# Sequence (Q9Y490 whole entry, the tested form may be a part): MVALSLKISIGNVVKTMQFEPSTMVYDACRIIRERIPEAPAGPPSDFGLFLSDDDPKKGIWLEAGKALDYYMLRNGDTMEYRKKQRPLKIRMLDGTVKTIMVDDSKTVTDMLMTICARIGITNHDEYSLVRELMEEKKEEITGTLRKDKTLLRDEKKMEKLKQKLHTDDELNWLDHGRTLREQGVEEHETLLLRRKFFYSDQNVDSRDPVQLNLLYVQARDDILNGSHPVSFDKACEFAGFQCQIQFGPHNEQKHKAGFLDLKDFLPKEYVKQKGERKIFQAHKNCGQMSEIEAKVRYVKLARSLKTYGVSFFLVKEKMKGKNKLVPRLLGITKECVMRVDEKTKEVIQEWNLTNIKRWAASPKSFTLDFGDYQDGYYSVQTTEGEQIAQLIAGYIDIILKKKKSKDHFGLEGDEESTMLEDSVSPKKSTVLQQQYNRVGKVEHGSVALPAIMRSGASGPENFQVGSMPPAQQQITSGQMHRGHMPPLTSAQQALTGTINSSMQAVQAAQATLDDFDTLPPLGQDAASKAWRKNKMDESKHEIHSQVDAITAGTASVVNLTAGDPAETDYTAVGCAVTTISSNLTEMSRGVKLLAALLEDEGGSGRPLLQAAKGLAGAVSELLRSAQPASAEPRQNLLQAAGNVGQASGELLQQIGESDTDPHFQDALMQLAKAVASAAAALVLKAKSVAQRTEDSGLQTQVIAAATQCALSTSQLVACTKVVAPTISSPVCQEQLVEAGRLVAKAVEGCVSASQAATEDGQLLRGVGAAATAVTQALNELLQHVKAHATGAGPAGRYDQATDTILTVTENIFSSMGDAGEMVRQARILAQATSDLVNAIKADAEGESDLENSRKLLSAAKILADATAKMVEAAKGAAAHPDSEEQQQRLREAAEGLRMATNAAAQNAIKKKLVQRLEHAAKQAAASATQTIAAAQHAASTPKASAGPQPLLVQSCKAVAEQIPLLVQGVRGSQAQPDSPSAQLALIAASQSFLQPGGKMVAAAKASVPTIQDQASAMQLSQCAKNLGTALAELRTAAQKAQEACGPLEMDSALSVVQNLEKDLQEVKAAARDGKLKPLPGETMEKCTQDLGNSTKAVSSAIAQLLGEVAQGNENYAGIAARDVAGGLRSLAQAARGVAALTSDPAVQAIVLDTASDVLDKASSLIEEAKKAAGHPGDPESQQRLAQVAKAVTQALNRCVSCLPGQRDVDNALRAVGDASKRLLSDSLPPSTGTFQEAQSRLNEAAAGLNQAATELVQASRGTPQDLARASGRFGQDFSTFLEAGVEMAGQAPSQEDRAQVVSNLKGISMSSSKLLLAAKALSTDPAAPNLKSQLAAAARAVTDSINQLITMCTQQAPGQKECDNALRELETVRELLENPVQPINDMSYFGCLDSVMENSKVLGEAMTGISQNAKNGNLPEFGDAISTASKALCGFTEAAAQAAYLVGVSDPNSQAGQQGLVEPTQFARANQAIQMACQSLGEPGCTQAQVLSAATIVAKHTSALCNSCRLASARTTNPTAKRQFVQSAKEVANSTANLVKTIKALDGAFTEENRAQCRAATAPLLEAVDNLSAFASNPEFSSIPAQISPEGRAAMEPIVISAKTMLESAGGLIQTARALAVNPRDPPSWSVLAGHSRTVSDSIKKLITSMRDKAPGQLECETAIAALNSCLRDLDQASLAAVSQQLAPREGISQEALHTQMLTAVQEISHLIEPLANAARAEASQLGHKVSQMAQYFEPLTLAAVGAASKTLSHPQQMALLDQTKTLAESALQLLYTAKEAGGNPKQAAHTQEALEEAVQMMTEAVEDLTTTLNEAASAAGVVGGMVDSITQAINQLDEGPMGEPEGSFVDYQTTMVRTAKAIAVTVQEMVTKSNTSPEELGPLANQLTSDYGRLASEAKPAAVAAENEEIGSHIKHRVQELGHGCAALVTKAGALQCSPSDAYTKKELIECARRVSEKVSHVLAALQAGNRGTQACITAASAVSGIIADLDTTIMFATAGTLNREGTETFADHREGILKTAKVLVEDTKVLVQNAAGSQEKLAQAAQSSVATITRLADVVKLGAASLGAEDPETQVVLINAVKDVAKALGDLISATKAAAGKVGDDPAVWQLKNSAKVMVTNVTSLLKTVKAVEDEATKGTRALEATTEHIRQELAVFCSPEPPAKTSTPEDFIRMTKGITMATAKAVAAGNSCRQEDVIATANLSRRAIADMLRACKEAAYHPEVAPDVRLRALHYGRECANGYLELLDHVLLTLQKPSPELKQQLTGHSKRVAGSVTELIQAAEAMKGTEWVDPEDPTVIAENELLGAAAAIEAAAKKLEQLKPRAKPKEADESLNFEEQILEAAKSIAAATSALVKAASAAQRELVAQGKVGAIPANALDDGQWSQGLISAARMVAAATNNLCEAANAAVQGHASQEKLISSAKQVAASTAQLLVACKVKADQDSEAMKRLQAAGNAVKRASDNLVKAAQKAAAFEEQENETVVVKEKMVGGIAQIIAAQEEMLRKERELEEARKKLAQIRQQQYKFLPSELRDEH
# assay_summary: fluorescence polarisation; competition: unlabelled peptide in serial dilution against the protein domain (master mix at four times the KD) with its FITC-labelled probe peptide; 50 mM KPO4 or NaPO4 pH 7.5; Ki calculated from IC50
pKi: −log10 of the molar value. Where no end group is shown, it is not given here.
measurement_label: pKi

Which measured pKi value corresponds to VGPLTPLWTYPATAAG-NH2 [NYAP1 542-557 peptide] ?
4.70

Next binder: FPTDERSWVYSPLHYS-NH2 [PIP5K1C 640-655 peptide, unlabelled]
7.18

P: DLIFTDSKLYIPLE-NH2 [TPTE 112-125 peptide]
Q: AKWDTANNPLYKEATS-NH2 [Integrin beta-3 763-778 peptide]
Response body: label of entry with the larger pKi; valid values P , Q . Respond with the label that goes with your answer.
P
